Taken from patent US20260284014A1.

- Test system: ROS
- PROTOCOL_DESCRIPTION: ROS labeling by cytometry after H2O2
- Format: cell-based
- EXPERIMENTAL_CONDITIONS: Homo sapiens, ARPE-19; 1 μM compound then 200 μM H2O2 for 2 h; read-out: C. ROS inhibition 1 μM - ARPE-19 cells
This listing pairs molecules with measured inhibition at 1 µM.

Below: 2 molecules and their reported inhibition at 1 µM.
> print(dat)
                            mol.smiles  measured.value
1     Nc1nc(Nc2ccccn2)nn1Cc1c(F)cccc1F           < 50%
2  Cc1ccc(Nc2nc(N)nn2Cc2cccc(Br)c2)cc1           ≥ 50%

Consider now this further molecule.
Query "COc1ccc(Nc2nc(N)n(Cc3cccc(Br)c3)n2)cc1" yields inhibition at 1 µM of < 50%
